Tested on: RNA polymerase II Serine 5 phosphorylation in A549 cells overexpressing CDK7 mutant (C312S)
Assay Protocol: Imaging-based cellular RNA PolII Ser5 phosphorylation assay in A549 cells overexpressing CDK7-mutant (C312S)
Type: cell-based, human
Study Conditions: A549 cells overexpressing CDK7 mutant (C312S)

{"Molecule": "CC#CC(=O)N1CC[C@H](N2CC(c3cc(C)c4c(c3)Nc3ncnc(N5CCS(=O)(=O)CC5)c3[C@H](C)O4)C2)C1 (single isomer, unassigned)", "CDK7_ A549 mutant hCDK7(pIC50)": "<5"}
{"Molecule": "CC#CC(=O)N1CC[C@H](N2CC(c3cc(C)c4c(c3)Nc3ncnc(N5CCS(=O)(=O)CC5)c3[C@@H](C)O4)C2)C1 [compound 128]", "CDK7_ A549 mutant hCDK7(pIC50)": "<5"}
{"Molecule": "CC#CC(=O)N1CC[C@@H](N2CC(c3cc(C)c4c(c3)Nc3ncnc(N5CCS(=O)(=O)CC5)c3[C@@H](C)O4)C2)C1", "CDK7_ A549 mutant hCDK7(pIC50)": "<5"}
{"Molecule": "C=CC(=O)N1CC(N2CCC(c3cc4c(cn3)O[C@@H](C)c3c(ncnc3N3CCOCC3)N4)CC2)C1 (single isomer, unassigned)", "CDK7_ A549 mutant hCDK7(pIC50)": "<5.4"}
{"Molecule": "C=CC(=O)N1CCC(N2CC(c3cc(C)c4c(c3)Nc3ncnc(N5CCOCC5)c3CO4)C2)C(F)C1 (stereo not drawn)", "CDK7_ A549 mutant hCDK7(pIC50)": "<5"}
{"Molecule": "C=CC(=O)N1CC[C@@H](N2CCC(c3cc(C)c4c(c3)Nc3ncnc(N5CCS(=O)(=O)CC5)c3CO4)CC2)C1 (single isomer, unassigned)", "CDK7_ A549 mutant hCDK7(pIC50)": "<5"}
{"Molecule": "C=CC(=O)N1CC[C@H](N2CC(c3cc(C)c4c(c3)Nc3ncnc(N5CCS(=O)(=O)CC5)c3[C@@H](C)O4)C2)C1 (single isomer, unassigned) [compound 121]", "CDK7_ A549 mutant hCDK7(pIC50)": "<5"}
{"Molecule": "CC#CC(=O)N1CC(N2CCC(c3cc(C)c4c(c3)Nc3ncnc(N5CCS(=O)(=O)CC5)c3[C@@H](C)O4)CC2)C1 [compound 158]", "CDK7_ A549 mutant hCDK7(pIC50)": "~5.22"}
{"Molecule": "CC#CC(=O)N1CC(N2CCC(c3cc(C)c4c(c3)Nc3ncnc(N5CCS(=O)(=O)CC5)c3[C@@H](C)O4)CC2)C1 [compound 157]", "CDK7_ A549 mutant hCDK7(pIC50)": 5.12}
{"Molecule": "CC#CC(=O)N1CCOC([C@H]2C[C@H](c3cc(C)c4c(c3)Nc3ncnc(N5CCS(=O)(=O)CC5)c3[C@@H](C)O4)C2)C1 (single isomer, unassigned)", "CDK7_ A549 mutant hCDK7(pIC50)": "<5"}
{"Molecule": "C=CC(=O)N1CC(N2C3CCC2CC(c2ccc4c(c2)Nc2ncnc(N5CCOCC5)c2CO4)C3)C1 (stereo not drawn)", "CDK7_ A549 mutant hCDK7(pIC50)": "<5"}
{"Molecule": "C=CC(=O)N1CC[C@H](N2CCC(c3cc(C)c4c(c3)Nc3ncnc(N5CCS(=O)(=O)CC5)c3CO4)CC2)C1 (single isomer, unassigned)", "CDK7_ A549 mutant hCDK7(pIC50)": "<5"}
